- ASSAY: Solubility assay (FaSSGF / FaSSIF)
- Assay type: physicochemical
- APPLIED CONDITIONS: kinetic from dmso stock; FaSSIF solution pH 6.5, 100 μM from DMSO stock, 2 h at 25° C.; read-out: FaSSIF solubility
PARAMETER MEASURED: solubility at 2 h (µM)
Answers are plain numbers, in µM.

Sample answers from the record:
# COMPOUND, solubility at 2 h [µM]
records = [
    ("CC(C)C(=O)N1CCN(c2cc(S(=O)(=O)NC3(C)COC3)cn3c(-c4nnc(C(F)F)s4)nc(Cl)c23)C[C@H]1C [Example 124]", 88.2),
    ("C[C@@H]1CN(c2cc(S(=O)(=O)NC3(CF)CC3)cn3c(-c4nnc(C(F)F)s4)nnc23)CCN1C(=O)C1(C)CC1 [Example 120]", 140),
    ("CC(C)C(=O)N1CCN(c2cc(S(=O)(=O)NC3(CF)COC3)cn3c(-c4nnc(C(F)F)s4)ncc23)CC1 [Example 60]", 10),
]

Dear reader, for each entry below, please note its solubility at 2 h.
1. N#CC1(NS(=O)(=O)c2cc(N3CCN(C(=O)C4CCO4)CC3)c3cnc(-c4nnc(C(F)(F)F)s4)n3c2)CC1 (centres unmarked) [Example 236]
2. CC(C)C(=O)N1CCN(c2cc(S(=O)(=O)NC3(C#N)CC3)cn3c(-c4nnc(C(F)(F)F)s4)ncc23)CC1 [Example 167]

Ans:
[82.6, 96.5]
